Target: T1, Human CXCR2 (human, UniProt P25025 1-360)
T1 sequence: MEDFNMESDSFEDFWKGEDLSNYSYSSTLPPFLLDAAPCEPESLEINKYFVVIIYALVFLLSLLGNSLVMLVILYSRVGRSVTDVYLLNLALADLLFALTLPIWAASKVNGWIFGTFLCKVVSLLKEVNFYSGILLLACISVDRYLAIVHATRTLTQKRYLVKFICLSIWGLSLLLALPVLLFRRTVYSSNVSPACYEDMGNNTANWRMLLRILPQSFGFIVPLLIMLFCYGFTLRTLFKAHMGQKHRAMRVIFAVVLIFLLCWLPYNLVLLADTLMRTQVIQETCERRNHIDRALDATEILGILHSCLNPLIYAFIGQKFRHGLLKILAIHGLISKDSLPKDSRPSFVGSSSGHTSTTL
Assay: cell-based or functional assay
reported-property: [35S]GTPγS accumulation IC50, ENA-78 (pM)

>>> observed_measurement("CXCR20020 (bispecific antibody, not shown: small tags and cut ends) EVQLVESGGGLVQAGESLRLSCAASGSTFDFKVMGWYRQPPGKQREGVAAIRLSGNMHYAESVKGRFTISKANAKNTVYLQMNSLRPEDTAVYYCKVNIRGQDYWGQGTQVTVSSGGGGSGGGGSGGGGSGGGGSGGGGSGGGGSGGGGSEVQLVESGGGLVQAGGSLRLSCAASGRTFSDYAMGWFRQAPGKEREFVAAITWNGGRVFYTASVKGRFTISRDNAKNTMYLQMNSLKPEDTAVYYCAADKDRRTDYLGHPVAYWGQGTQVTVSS")
707
